Several publications report pIC50 on UniProt:P16184; those values are gathered here.
pIC50: −log10 of the molar value.

Worked cases, answers included:
>>> measured_result("COc1ccc(OC)c(NCc2c(Br)sc3nc(N)nc(N)c23)c1")
"< 4.00"
>>> measured_result("COc1ccc(C)c(NCc2cnc3nc(N)nc(N)c3n2)c1")
"< 5.52"
>>> measured_result("COc1cc(/C=C/c2cnc3nc(N)nc(N)c3c2)cc(OC)c1OC")
"< 5.30"
>>> measured_result("COc1ccc(NCc2c[nH]c3nc(N)nc(O)c23)c(OC)c1")
"< 4.80"
>>> measured_result("COc1cc(N(C)Cc2c[nH]c3nc(N)[nH]c(=O)c23)cc(OC)c1OC")
"< 4.35"

Attention now shifts to the item below.
Incoming: For `COc1ccc(OC)c(N(C)Cc2c(Br)sc3nc(N)nc(N)c23)c1` , what is its reported pIC50?
Outgoing: < 5.00
